test system: SK-MEL-5 melanoma; test: NCI-60 one-dose screen, 48 h; details: 10 µM unless noted
About 83,000 compounds went through this panel and 20% of them were active in at least one assay; those are over-represented in the sample as a whole. Activity calls are given as the source filed them. The calls were made as follows: active = growth percent below 10; inactive = the rest.
Answer with one of the outcomes active, inactive

Query: Per the records of this test, what outcome belongs to Nc1nc(N)c(-c2ccc(Cl)c(Cl)c2)c(CBr)n1 ?
Result: inactive

Query: Per the records of this test, what outcome belongs to C1CN(SSN2CCOCC2)CCO1 ?
Result: inactive

Query: Per the records of this test, what outcome belongs to Nc1ncnc2c1c(-c1cccc(Cl)c1)nn2CC(=O)N1CCOCC1 ?
Result: inactive

Query: Per the records of this test, what outcome belongs to Cc1ccc(Nn2c(SCC(=O)Nc3nc(-c4ccccc4)cs3)nc(C)c2C)cc1 ?
Result: active

Query: Per the records of this test, what outcome belongs to COC(=O)Nc1nc2ccc(S(=O)c3ccccc3)cc2[nH]1 (stereo unspecified) ?
Result: inactive

Query: Per the records of this test, what outcome belongs to Cc1ccccc1/C=C/C(=O)c1cccc(OCCCOc2cccc(C(=O)/C=C/c3ccccc3C)c2)c1 ?
Result: inactive

Query: Per the records of this test, what outcome belongs to O=C(Nc1ccc(Oc2cccc(Cl)c2)c(Cl)c1)c1cccnc1 ?
Result: inactive

Query: Per the records of this test, what outcome belongs to N#C/C(=C\c1c(-c2ccccc2)[nH]c2ccccc12)C(N)=O ?
Result: inactive

Query: Per the records of this test, what outcome belongs to Cc1ccc(Nc2cc(N)nc(N)n2)cc1Cl ?
Result: inactive

Query: Per the records of this test, what outcome belongs to C=C(C)[C@@H]1CC[C@]2(C(=O)N3CCOCC3)CC[C@]3(C)[C@H](CC[C@@H]4[C@@]5(C)C/C(=C/c6ccncc6)C(=O)C(C)(C)[C@@H]5CC[C@]43C)[C@@H]12 ?
Result: inactive

Query: Per the records of this test, what outcome belongs to C/C(Cc1ccc(Cl)cc1)=C(\c1ccc(O)cc1)c1ccc(Cl)cc1 ?
Result: inactive

Query: Per the records of this test, what outcome belongs to COc1cc(/C=C2/C=C(c3ccccc3)N(CCc3ccc(S(N)(=O)=O)cc3)C2=O)cc(OC)c1OC ?
Result: inactive

Query: Per the records of this test, what outcome belongs to NC(=O)C(=O)c1ccccc1NC=O ?
Result: inactive

Query: Per the records of this test, what outcome belongs to CNc1nnc2n(-c3ccccc3)c(=O)c3cnn(-c4ccccc4)c3n12 ?
Result: inactive

Query: Per the records of this test, what outcome belongs to O=C(CSc1nnc(-c2cnccn2)n1-c1ccccc1)c1ccc(Cl)cc1 ?
Result: inactive

Query: Per the records of this test, what outcome belongs to O=S(=O)(c1ccccc1)n1cc2c(c1)-c1nc(Nc3ncccn3)sc1CC2 ?
Result: inactive

Query: Per the records of this test, what outcome belongs to O=C(CN1C(=O)S/C(=C\C(Cl)=C\c2ccccc2)C1=O)NCCc1ccc(O)cc1 ?
Result: inactive

Query: Per the records of this test, what outcome belongs to O=S(=O)(Nc1cc(F)cc(Cl)c1)c1ccc(-c2cnc(C3CC3)o2)cc1 ?
Result: inactive

Query: Per the records of this test, what outcome belongs to CC(C)(Sc1cc(C(C)(C)C)c(OC(=O)CCCC(=O)O)c(C(C)(C)C)c1)Sc1cc(C(C)(C)C)c(OC(=O)CCCC(=O)O)c(C(C)(C)C)c1 ?
Result: active

Query: Per the records of this test, what outcome belongs to COc1ccc(C(O)c2cc3c(N)c(C(=O)Nc4cccc(Br)c4)sc3nc2C)cc1 (stereo unspecified) ?
Result: active

Query: Per the records of this test, what outcome belongs to CCC(C(=O)[C@@H](C)[C@@H](O)[C@H](C)[C@@H]1O[C@@H]([C@@H](CC)C(=O)ONC(=O)c2ccccc2)CC[C@@H]1C)[C@H]1O[C@]2(C=CC(=O)[C@]3(CC[C@@](C)([C@H]4CC[C@](O)(CC)[C@H](C)O4)O3)O2)[C@H](C)C[C@@H]1C (stereo partly specified) ?
Result: active

Query: Per the records of this test, what outcome belongs to CCCCNC(=O)Oc1ccc(/C(=C(/C)Cc2ccc(OC)cc2)c2ccc(OCCN(CC)CC)cc2)cc1 ?
Result: inactive

Query: Per the records of this test, what outcome belongs to CCOC(=O)[C@@H]1CSC(CC)=C(C(=O)O)N1 ?
Result: inactive

Query: Per the records of this test, what outcome belongs to CCN(CC)Cc1cc(C=C2C(=O)NC(=S)NC2=O)cc(OC)c1O ?
Result: inactive

Query: Per the records of this test, what outcome belongs to COc1ccccc1CNc1c2ccccc2nc2ccccc12 ?
Result: inactive

Query: Per the records of this test, what outcome belongs to O=C(O)c1cn(C2CC2)c2cc(N3CCN(C(=O)N(c4ccccc4)c4nc(-c5ccccc5)cs4)CC3)c(F)cc2c1=O ?
Result: active

Query: Per the records of this test, what outcome belongs to CCCCCN1C(=O)/C(=c2\sc3n(c2=O)C2C(NN=3)N(CC)C(=O)N2CC)c2ccccc21 (stereo unspecified) ?
Result: inactive

Query: Per the records of this test, what outcome belongs to COc1cc(C2CC(c3ccc(Nc4nc(Nc5ccc(Cl)cc5)nc(Nc5ccc(Cl)cc5)n4)cc3)=NN2C(C)=O)cc(OC)c1OC (stereo unspecified) ?
Result: inactive

Query: Per the records of this test, what outcome belongs to Nc1c(C(=O)Nc2ccccc2C(F)(F)F)sc2nc3c(cc12)CCC3 ?
Result: inactive

Query: Per the records of this test, what outcome belongs to CS(=O)(=O)c1ccc(-c2cnn3ccc(-c4cccc(S(=O)(=O)C5CC5)c4)nc23)cc1 ?
Result: inactive

Query: Per the records of this test, what outcome belongs to CN1CCN(c2cc(Nc3cc(C4CC4)[nH]n3)nc(Nc3ccc(CC(=O)NCc4cccc(F)c4)cc3)n2)CC1 ?
Result: inactive

Query: Per the records of this test, what outcome belongs to CC(=O)c1c(C)nc(SCC(=O)Nc2cccc(O)c2)n1-c1ccc(Cl)cc1 ?
Result: inactive

Query: Per the records of this test, what outcome belongs to COc1ccc(-c2cc(-c3cc(OC)c(OC)c(OC)c3)c(C#N)c(=O)n2CCCCC(=O)NO)cc1 ?
Result: inactive

Query: Per the records of this test, what outcome belongs to C=CCc1c(O)c(C(=O)/C=C/c2ccccc2)c(OC)c2ccoc12 ?
Result: inactive

Query: Per the records of this test, what outcome belongs to COc1cc(-c2nc3sccn3c2-c2ccnc(NCCNS(=O)(=O)c3ccccc3)n2)ccc1F ?
Result: inactive

Query: Per the records of this test, what outcome belongs to CCCCn1c(=O)[nH]c(N)c([C@@H]2c3c([nH]c(=O)n(CCCC)c3=O)Oc3ccc4ccccc4c32)c1=O ?
Result: inactive

###

system: NCI-H226 lung; assay: NCI-60 one-dose screen, 48 h (100 = growth as untreated, 0 = no growth, -100 = all killed); conditions: 10 µM unless noted
Compounds without any hit were thinned out: in the full panel of roughly 83,000, 20% have a hit.
observedProperty: growth (%)
Give the value in % but do not write % after it.

Query: Please tell me the measured growth for COC12C=C/C(=C(/C(=O)OCc3ccncc3)C(=O)CCCCCCCCC3(OC)C=C/C(=C(/C(=O)OCc4ccncc4)C(=O)CCCCCCCC1)O3)O2 ; system: NCI-H226 lung.
Result: -64.7

Query: Please tell me the measured growth for CCOC(=O)C1=C(c2ccccc2)N=C2SC=C(c3ccc(Cl)cc3)N2C1c1ccc(Br)cc1 (centres undefined) ; system: NCI-H226 lung.
Result: 76.6

Query: Please tell me the measured growth for CC(C)=CCC[C@](C)(O)[C@H]1CC[C@]2(C)[C@@H]1CC[C@@H]1[C@@]3(C)C/C(=C/c4ccco4)C(=O)C(C)(C)[C@@H]3CC[C@]12C ; system: NCI-H226 lung.
Result: 103

Query: Please tell me the measured growth for Nc1n[nH]c2cccc(C#Cc3cccc(NC(=O)c4cc(F)cc(C(F)(F)F)c4)c3)c12 ; system: NCI-H226 lung.
Result: 46.6

Query: Please tell me the measured growth for CN(C)S(=O)(=O)c1cccc(C(=O)Nc2nc(-c3ccc(F)c(F)c3)cs2)c1 ; system: NCI-H226 lung.
Result: 46.7

Query: Please tell me the measured growth for CCc1ccc(CCCC(=O)O)cc1 ; system: NCI-H226 lung.
Result: 95.1

Query: Please tell me the measured growth for Cn1c(=O)cc2c3c(c(NCCCO)ccc31)C(=O)c1ccccc1-2 ; system: NCI-H226 lung.
Result: 38.4

Query: Please tell me the measured growth for NS(=O)(=O)c1ccccc1NC(=O)Nc1nc2ccccc2s1 ; system: NCI-H226 lung.
Result: 91.5

Query: Please tell me the measured growth for C=C1C(=O)O[C@H]2[C@H]1CC/C(COC(=O)c1cc3ccccc3s1)=C\CC[C@@]1(C)O[C@@H]21 ; system: NCI-H226 lung.
Result: -51.1
